Catalogue of λmax Q values
# assay: Light absorption maxima and molar extinction coefficients
# Format: physicochemical
# protocol-conditions: in water (W)
In your answer, state the number alone without any accompanying words.

The cases that follow already have their λmax Q on record.
# structure-as-smiles, λmax Q
rows = [
    ("Nc1cccc(C(=O)O)c1.Nc1cccc(C(=O)O)c1.c1ccc2c(c1)C1=NC3=NC(=Nc4c5ccccc5c5[n]4[Ru][n]4c(c6ccccc6c4=N5)=NC2=N1)c1ccccc13", 638),
    ("O=S(=O)([O-])c1cccnc1.O=S(=O)([O-])c1cccnc1.[Na+].[Na+].c1ccc2c(c1)C1=NC2=Nc2c3ccccc3c3[n]2[Ru][n]2c(c4ccccc4c2=NC2=NC(=N3)c3ccccc32)=N1", 630),
]

Exercise: λmax Q lookup needed for "O=S(=O)([O-])c1cccc(P(c2ccccc2)c2ccccc2)c1.O=S(=O)([O-])c1cccc(P(c2ccccc2)c2ccccc2)c1.[K+].[K+].c1ccc2c(c1)C1=NC3=NC(=Nc4c5ccccc5c5[n]4[Ru][n]4c(c6ccccc6c4=N5)=NC2=N1)c1ccccc13" , thanks.
Key: 652
